Reported CC50 at 24 h values for a set of compounds
# method-description: Cytotoxicity against PHA-stimutated human PBMC after 24 hrs by MTS assay
# Format: cell-based
# applied-conditions: PHA-stimulated PBMC
Lab book: enter the figure in µg/mL, no units written.

Some compounds with known CC50 at 24 h results, for comparison:
CC(=O)O[C@H]1CC(=O)OC(C)(C)[C@@H]2CC(=O)[C@]3(C)[C@H](CC[C@@]4(C)[C@@H](c5ccoc5)OC(=O)[C@H]5O[C@]543)[C@@]12C ... 692
CC1(C)O[C@H]2CC(=O)OC[C@]23[C@H]2CC[C@@]4(C)[C@H](c5ccoc5)OC(=O)[C@H]5O[C@]54[C@]2(C)C(=O)C[C@@H]13 ... 452
Cc1ccnc2c1NC(=O)c1cccnc1N2C1CC1 ... 40.9
Cc1cn([C@H]2C[C@H](N=[N+]=[N-])[C@@H](CO)O2)c(=O)[nH]c1=O ... 31.2

Name the recorded CC50 at 24 h for Nc1ccn([C@@H]2CS[C@H](CO)O2)c(=O)n1 . 53

----------
# method-description: Ratio of zidovudine CC50 to compound CC50 for human MOLT3 cells
# Type: ADME, cell-based, MOLT-3
Reported selectivity ratio values for a set of molecules
Give the figure by itself; no unit, no explanation.

CC1(C)O[C@H]2CC(=O)OC[C@]23[C@H]2CC[C@@]4(C)[C@H](c5ccoc5)OC(=O)[C@H]5O[C@]54[C@]2(C)C(=O)C[C@@H]13 ... 62

Now take the following molecule into account.
Name the recorded selectivity ratio for CC(=O)O[C@H]1CC(=O)OC(C)(C)[C@@H]2CC(=O)[C@]3(C)[C@H](CC[C@@]4(C)[C@@H](c5ccoc5)OC(=O)[C@H]5O[C@]543)[C@@]12C . 230

----------
# method-description: Ratio of Lamivudine CC50 to compound CC50 for human MOLT3 cells
# Format: ADME, cell-based, MOLT-3
quantity: selectivity ratio
Give the figure by itself; no unit, no explanation.

CC1(C)O[C@H]2CC(=O)OC[C@]23[C@H]2CC[C@@]4(C)[C@H](c5ccoc5)OC(=O)[C@H]5O[C@]54[C@]2(C)C(=O)C[C@@H]13 [LIMONIN] ... 33

Now take the following molecule into account.
Name the recorded selectivity ratio for CC(=O)O[C@H]1CC(=O)OC(C)(C)[C@@H]2CC(=O)[C@]3(C)[C@H](CC[C@@]4(C)[C@@H](c5ccoc5)OC(=O)[C@H]5O[C@]543)[C@@]12C [NOMILIN] . 130
